TARGET OR TEST SYSTEM: c-Met kinase (Homo sapiens)
Construct: purchased Carna
Sequence (P08581 25-1390): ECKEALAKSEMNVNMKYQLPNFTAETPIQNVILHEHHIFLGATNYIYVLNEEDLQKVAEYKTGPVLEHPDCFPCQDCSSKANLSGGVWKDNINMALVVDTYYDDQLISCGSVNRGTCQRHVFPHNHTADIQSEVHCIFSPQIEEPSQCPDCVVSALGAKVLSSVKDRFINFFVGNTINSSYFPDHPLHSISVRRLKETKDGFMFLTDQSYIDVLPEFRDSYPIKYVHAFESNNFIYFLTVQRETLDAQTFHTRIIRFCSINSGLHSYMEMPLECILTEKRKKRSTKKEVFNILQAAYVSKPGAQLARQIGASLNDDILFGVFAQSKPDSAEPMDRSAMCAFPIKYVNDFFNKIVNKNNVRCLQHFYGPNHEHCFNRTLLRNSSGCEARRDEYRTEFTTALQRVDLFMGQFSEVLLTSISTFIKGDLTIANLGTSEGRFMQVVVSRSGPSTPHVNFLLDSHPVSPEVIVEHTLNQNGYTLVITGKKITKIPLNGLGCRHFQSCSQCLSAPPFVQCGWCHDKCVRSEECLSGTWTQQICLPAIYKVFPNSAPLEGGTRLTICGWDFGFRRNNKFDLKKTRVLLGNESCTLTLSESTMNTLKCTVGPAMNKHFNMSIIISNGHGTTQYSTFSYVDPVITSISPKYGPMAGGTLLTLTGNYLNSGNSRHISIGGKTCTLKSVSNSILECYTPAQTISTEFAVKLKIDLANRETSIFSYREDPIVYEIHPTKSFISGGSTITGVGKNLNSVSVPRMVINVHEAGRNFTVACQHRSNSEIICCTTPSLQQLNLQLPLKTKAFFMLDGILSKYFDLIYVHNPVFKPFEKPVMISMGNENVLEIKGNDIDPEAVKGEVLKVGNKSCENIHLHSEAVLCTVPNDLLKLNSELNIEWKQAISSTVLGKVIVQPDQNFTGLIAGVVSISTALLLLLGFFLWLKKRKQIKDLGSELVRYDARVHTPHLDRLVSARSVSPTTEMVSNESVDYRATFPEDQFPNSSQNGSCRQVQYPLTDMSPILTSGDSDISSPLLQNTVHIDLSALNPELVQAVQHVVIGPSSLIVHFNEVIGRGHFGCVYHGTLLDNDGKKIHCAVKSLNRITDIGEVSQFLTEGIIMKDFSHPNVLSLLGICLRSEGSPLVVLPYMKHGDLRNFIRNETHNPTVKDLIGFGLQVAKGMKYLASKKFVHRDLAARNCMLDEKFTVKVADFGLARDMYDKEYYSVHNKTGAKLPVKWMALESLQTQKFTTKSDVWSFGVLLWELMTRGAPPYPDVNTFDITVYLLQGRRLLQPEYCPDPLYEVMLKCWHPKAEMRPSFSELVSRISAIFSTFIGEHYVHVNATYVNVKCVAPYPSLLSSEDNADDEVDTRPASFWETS
EXPERIMENT DESCRIPTION: c-Met inhibition assay (Caliper motility shift assay)
Type: biochemical
CONDITION DETAILS: SAR statement, ortho-substituted compounds
OUTCOME MEASURE: c-Met inhibitory activity in words

INPUT: Give the reported value of c-Met inhibitory activity in words for this record: COc1cc2nccc(Nc3ccc4nc(-c5cc(F)ccc5Br)[nH]c4c3)c2cc1OC [Compound 12s]
OUTPUT: loss of activity

INPUT: Give the reported value of c-Met inhibitory activity in words for this record: COc1cc2nccc(Nc3ccc4nc(-c5c(F)cccc5F)[nH]c4c3)c2cc1OC [Compound 12p]
OUTPUT: loss of activity

INPUT: Give the reported value of c-Met inhibitory activity in words for this record: COc1cc2nccc(Nc3ccc4nc(-c5c(Cl)cccc5Cl)[nH]c4c3)c2cc1OC [Compound 12q]
OUTPUT: loss of activity
